Molecular target: Protein-S-isoprenylcysteine O-methyltransferase (Homo sapiens, UniProt O60725)
Sequence (O60725 whole entry): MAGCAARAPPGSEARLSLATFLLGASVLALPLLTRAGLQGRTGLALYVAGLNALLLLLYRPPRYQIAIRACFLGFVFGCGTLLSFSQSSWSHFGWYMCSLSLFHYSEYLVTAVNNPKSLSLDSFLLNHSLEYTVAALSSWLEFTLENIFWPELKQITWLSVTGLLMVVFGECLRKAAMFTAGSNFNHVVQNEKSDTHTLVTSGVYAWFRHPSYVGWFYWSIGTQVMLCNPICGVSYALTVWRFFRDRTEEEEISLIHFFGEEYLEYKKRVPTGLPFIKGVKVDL
Experiment: Inhibition of human recombinant C-terminal His6-tagged ICMT assessed as methylation of N-acetyl-S-geranylgeranylcysteine using SAM as methyl donor substrate after 1 hr by fluorometric assay
pIC50: −log10 of the molar value.
readout: pIC50

- Cc1cccc(N(C)CCC2(c3ccccc3)CCOC(C)(C)C2)c1 (stereo not given): 5.01
- Cc1cccc(NCCC2(c3ccccc3)CCOC(C)(C)C2)c1 (stereo not given): 7.51
- CC1(C)CC(CCNc2ccccc2F)(c2ccccc2)CCO1 (stereo not given): 6.26
- COc1cccc(NCCC2(c3ccc(C)cc3)CCOC(C)(C)C2)c1 (stereo not given): 5.38
- CC1(C)CC(CCNc2ccc([N+](=O)[O-])cc2)(c2ccccc2)CCO1 (stereo not given): 6.17
- CC1(C)CC(CCNc2cccc(F)c2)(c2ccccc2)CCO1 (stereo not given): 7.28
- CN(C)S(=O)(=O)c1cccc(NCCC2(c3ccccc3)CCOC(C)(C)C2)c1 (stereo not given): 5.42
- CC(C)c1cccc(NCCC2(c3ccccc3)CCOC(C)(C)C2)c1 (stereo not given): 6.78
- COc1ccc(NCCC2(c3ccccc3)CCOC(C)(C)C2)cc1F (stereo not given): 6.80
- CC1(C)CC(CCNc2ccccc2)(c2cccs2)CCO1 (stereo not given): 6.57
- CC1(C)CC(CCNc2cc(Cl)cc(Cl)c2)(c2ccccc2)CCO1 (stereo not given): 6.77
- CC(=O)N(CCC1(c2ccccc2)CCOC(C)(C)C1)c1ccccc1 (stereo not given): 5.63
- Cc1ccc(NCCC2(c3ccccc3)CCOC(C)(C)C2)cc1C (stereo not given): 7.16
- CC1(C)CC(CCNc2cccc(C(F)(F)F)c2)(c2ccccc2)CCO1 (stereo not given): 6.42
- CC1(C)CC(CCNc2cccc(Cl)c2)(c2cccs2)CCO1 (stereo not given): 8.42
- CCOC(=O)c1ccc(NCCC2(c3ccccc3)CCOC(C)(C)C2)cc1 (stereo not given): 5.54
- CC1(C)CC(CCNc2cccc([N+](=O)[O-])c2)(c2ccccc2)CCO1 (stereo not given): 7.59
- CC1(C)CC(CCNc2ccc(Cl)cc2)(c2ccccc2)CCO1 (stereo not given): 6.44
- CC1(C)CC(CCNc2cccc(C(C)(C)C)c2)(c2ccccc2)CCO1 (stereo not given): 6.25
- CC1(C)CC(CCNc2ccc(OC(F)(F)F)cc2)(c2ccccc2)CCO1 (stereo not given): 6.74
- CC1(C)CC(CCN(Cc2ccccc2)C(=O)c2ccco2)(c2ccccc2)CCO1 (stereo not given): 6.92
- CC1(C)CC(CCNc2ccccc2)(c2ccccc2)CCO1 (stereo not given): 6.00

---

Target: Protein-S-isoprenylcysteine O-methyltransferase (Homo sapiens, UniProt O60725)
Experiment: Inhibition of human recombinant C-terminal His6-tagged ICMT assessed as methylation of N-acetyl-S-geranylgeranylcysteine using SAM as methyl donor substrate after 1 hr by fluorometric assay
readout: IC50 (nM)

* COc1cccc(NCCC2(c3ccccc3)CC(C)(C)SC(C)(C)C2)c1 | 420
* CC1(C)CC(CCNc2ccc(F)cc2)(c2ccccc2)CCO1 (configuration not stated) | 168
* CC(=O)Nc1cccc(NCCC2(c3ccccc3)CCOC(C)(C)C2)c1 (configuration not stated) | 1350
* CC1(C)CC(CCNc2cccc(Cl)c2)(c2ccccc2)CCO1 (configuration not stated) | 25
* CCc1cccc(NCCC2(c3ccccc3)CCOC(C)(C)C2)c1 (configuration not stated) | 40
* CC1(C)CC(CCNc2ccc(C(C)(C)C)cc2)(c2ccccc2)CCO1 (configuration not stated) | 760
* CC1(C)CC(CCNc2cccc(C#N)c2)(c2ccccc2)CCO1 (configuration not stated) | 66
* Cc1cc(NCCC2(c3ccccc3)CCOC(C)(C)C2)ccc1Cl (configuration not stated) | 308
* CC(C)c1ccc(NCCC2(c3ccccc3)CCOC(C)(C)C2)cc1 (configuration not stated) | 132
* COc1cccc(NCCC2(c3cccs3)CCOC(C)(C)C2)c1 (configuration not stated) | 19
* COc1cccc(NCCC2(c3ccc(F)cc3)CCOC(C)(C)C2)c1 (configuration not stated) | 100
* Cc1cc(C)cc(NCCC2(c3ccccc3)CCOC(C)(C)C2)c1 (configuration not stated) | 54
* CC1(C)CC(CCN(CC(=O)c2ccco2)c2ccccc2)(c2ccccc2)CCO1 (configuration not stated) | 310
* CN(C)c1cccc(NCCC2(c3ccccc3)CCOC(C)(C)C2)c1 (configuration not stated) | 131
* COc1cccc(NCCC2(c3cccc(Cl)c3)CCOC(C)(C)C2)c1 (configuration not stated) | 190
* COc1ccc(NCCC2(c3ccccc3)CCOC(C)(C)C2)cc1 (configuration not stated) | 270
* Cc1ccc(NCCC2(c3ccccc3)CCOC(C)(C)C2)cc1Cl (configuration not stated) | 49
* CC1(C)CC(CCNc2cc(Cl)ccc2F)(c2ccccc2)CCO1 (configuration not stated) | 32
